Target: Voltage-gated inwardly rectifying potassium channel KCNH2 (Homo sapiens, UniProt Q12809)
Sequence (Q12809 whole entry): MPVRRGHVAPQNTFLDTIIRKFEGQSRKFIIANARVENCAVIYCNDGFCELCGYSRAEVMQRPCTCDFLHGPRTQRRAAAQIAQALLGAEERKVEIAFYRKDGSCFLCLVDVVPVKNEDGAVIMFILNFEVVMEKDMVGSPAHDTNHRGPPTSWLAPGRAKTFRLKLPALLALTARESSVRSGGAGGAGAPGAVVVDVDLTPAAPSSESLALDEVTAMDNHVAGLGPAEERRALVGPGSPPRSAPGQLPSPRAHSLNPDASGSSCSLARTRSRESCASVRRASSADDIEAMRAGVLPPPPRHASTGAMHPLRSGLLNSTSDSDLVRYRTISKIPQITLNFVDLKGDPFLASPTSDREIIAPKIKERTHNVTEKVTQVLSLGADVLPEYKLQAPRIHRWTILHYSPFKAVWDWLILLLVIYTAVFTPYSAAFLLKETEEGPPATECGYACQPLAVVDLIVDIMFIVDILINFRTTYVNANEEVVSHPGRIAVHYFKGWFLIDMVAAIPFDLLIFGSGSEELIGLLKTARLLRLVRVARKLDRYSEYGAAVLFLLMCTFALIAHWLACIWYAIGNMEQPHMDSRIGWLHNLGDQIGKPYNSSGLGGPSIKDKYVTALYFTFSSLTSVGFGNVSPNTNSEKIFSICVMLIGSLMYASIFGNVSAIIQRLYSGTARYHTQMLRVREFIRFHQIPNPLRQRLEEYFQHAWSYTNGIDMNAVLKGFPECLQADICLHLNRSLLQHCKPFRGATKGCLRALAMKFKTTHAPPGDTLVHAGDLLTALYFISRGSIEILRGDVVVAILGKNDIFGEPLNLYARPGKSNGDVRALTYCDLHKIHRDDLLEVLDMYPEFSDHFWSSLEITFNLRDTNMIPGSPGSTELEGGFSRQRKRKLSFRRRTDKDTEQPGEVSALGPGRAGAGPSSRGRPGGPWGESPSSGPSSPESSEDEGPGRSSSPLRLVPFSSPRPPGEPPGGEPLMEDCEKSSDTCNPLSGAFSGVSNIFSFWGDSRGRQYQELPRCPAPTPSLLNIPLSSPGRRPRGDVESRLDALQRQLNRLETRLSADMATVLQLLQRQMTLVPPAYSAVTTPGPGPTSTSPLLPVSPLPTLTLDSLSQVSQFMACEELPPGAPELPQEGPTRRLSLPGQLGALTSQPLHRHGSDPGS
MEASURED_PROPERTY: IC50 (µM)
State just the number; it will be interpreted in µM.

Task item: Test system Voltage-gated inwardly rectifying potassium channel KCNH2 (Homo sapiens, UniProt Q12809); read-out IC50; what value for "CNC(=O)c1ccc(-c2cc(F)c3ncc(Cc4ccc5ncccc5c4)n3c2)cc1F" ?
Reply: 93.6

====

System: A549
Assay: Antiproliferative activity against human A549 cells after 72 hrs
Assay type: functional, cell-based
Settings: A549, 72 h
MEASURED_PROPERTY: IC50

Task item: Entry under review: "CNC(=O)c1ccc(-c2cc(F)c3ncc(Cc4ccc5ncccc5c4)n3c2)cc1F" . Reported IC50?
Reply: > 50 µM

====

Assay: Antiproliferative activity against human EBC1 cells after 72 hrs
Details: EBC-1, 72 h
MEASURED_PROPERTY: IC50 (nM)
State just the number; it will be interpreted in nM.

// known answers, use as guide
>  <COMPOUND>
O=C(NCCCN1CCCC1)c1ccc(-c2cc(F)c3ncc(Cc4ccc5ncccc5c4)n3c2)cc1F

>  <UNIT_SPEC>
nM

>  <IC50>
161

$$$$
>  <COMPOUND>
O=C(NC1CCOCC1)c1ccc(-c2cc(F)c3ncc(Cc4ccc5ncccc5c4)n3c2)cc1F

>  <UNIT_SPEC>
nM

>  <IC50>
70.5

$$$$
>  <COMPOUND>
CNC(=O)c1ccc(-c2cc(F)c3ncc(C(O)c4ccc5ncccc5c4)n3c2)cc1F (stereo not given)

>  <UNIT_SPEC>
nM

>  <IC50>
3020

$$$$
>  <COMPOUND>
N#Cc1ccc(-c2cc(F)c3ncc(Cc4ccc5ncccc5c4)n3c2)cc1F

>  <UNIT_SPEC>
nM

>  <IC50>
145

$$$$
>  <COMPOUND>
C[C@@H](Oc1cc(-c2cnn(C3CCNCC3)c2)cnc1N)c1c(Cl)ccc(F)c1Cl

>  <UNIT_SPEC>
nM

>  <IC50>
21.8

$$$$
>  <COMPOUND>
Fc1cc(-c2ccc(N3CCOCC3)nc2)cn2c(Cc3ccc4ncccc4c3)cnc12

>  <UNIT_SPEC>
nM

>  <IC50>
225

$$$$
>  <COMPOUND>
Cn1cc(-c2cc(F)c3ncc(Cc4ccc5ncccc5c4)n3c2)cn1

>  <UNIT_SPEC>
nM

>  <IC50>
270

$$$$
>  <COMPOUND>
O=C(NCc1ccccn1)c1ccc(-c2cc(F)c3ncc(Cc4ccc5ncccc5c4)n3c2)cc1F

>  <UNIT_SPEC>
nM

>  <IC50>
5550

$$$$
>  <COMPOUND>
O=C(NCc1cc(F)cc(F)c1)c1ccc(-c2cc(F)c3ncc(Cc4ccc5ncccc5c4)n3c2)cc1F

>  <UNIT_SPEC>
nM

>  <IC50>
53.6

$$$$

Task item: Entry under review: "Fc1cc(F)cc(-c2cc(F)c3ncc(Cc4ccc5ncccc5c4)n3c2)c1" . Reported IC50?
Reply: 790
